B1: RNA-binding E3 ubiquitin-protein ligase MEX3C, residues 325 to 391; numbered along this chain, Q5U5Q3 (parent)
chain: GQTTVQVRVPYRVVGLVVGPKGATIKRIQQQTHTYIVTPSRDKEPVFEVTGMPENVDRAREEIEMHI

Variants of: B1
measurement.protocol: abundance fitness (aPCA) (normalised: wild type 0, dead -1); higher = more abundant; growth selection in yeast, the domain comes from the species named
test.conditions: Homo sapiens
# binarize abundance fitness: threshold -0.3 inclusive, high side t, low side f

- mutant.id: "V49K"
  category: "f"
- mutant.id: "Q30Y"
  category: "f"
- mutant.id: "K43E"
  category: "t"

Incoming: In plain terms: is recorded abundance fitness at least -0.3 for K21A ?
Outgoing: t

Incoming: Say whether P45A shows abundance fitness of -0.3 or more.
Outgoing: f

Incoming: Can P39D be said to have abundance fitness at or above -0.3?
Outgoing: f

Incoming: Does I25K have a reported abundance fitness of at least -0.3?
Outgoing: f

Value source: the Human Domainome abundance scans (Beltran et al. 2025)
